Measured EC50 by item
- TESTED ON: T1, cynomolgus ILT7 (cynomolgus, UniProt P59901 24-499 (human entry))
- T1 construct: also called cyno ILT7; cynomolgus monkey ILT7
- T1 sequence (P59901 other isoform, or with tags, fused parts or gaps limits assumed): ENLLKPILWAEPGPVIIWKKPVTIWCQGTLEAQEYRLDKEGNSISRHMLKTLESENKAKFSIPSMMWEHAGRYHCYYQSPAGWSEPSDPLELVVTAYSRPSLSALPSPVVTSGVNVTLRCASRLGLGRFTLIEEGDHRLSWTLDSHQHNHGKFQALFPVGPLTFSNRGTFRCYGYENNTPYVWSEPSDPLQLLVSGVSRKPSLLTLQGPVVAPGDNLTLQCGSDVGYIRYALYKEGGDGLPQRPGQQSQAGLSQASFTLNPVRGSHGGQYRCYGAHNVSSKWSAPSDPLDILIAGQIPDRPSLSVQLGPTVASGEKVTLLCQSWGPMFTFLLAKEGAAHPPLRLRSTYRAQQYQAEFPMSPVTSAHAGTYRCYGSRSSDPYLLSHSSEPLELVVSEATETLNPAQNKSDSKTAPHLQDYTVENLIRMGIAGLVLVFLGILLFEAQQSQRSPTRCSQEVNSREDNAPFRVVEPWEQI
- EXPERIMENT DESCRIPTION: flow cytometry on CynoILT7 CT-125 cells
QUANTITY: EC50

[[record]]
binder = "ILT70052 (antibody, V domains shown) VH: EVQLVESGGGLVKPGGSLRLSCEASGFTFTDYYMNWIRQAPGKGLEWISYISPGGTTVYYADSVKGRFTISRDNAKNSLYLQMNSLRVEDTAVYYCARDISGYGDWFDPWGKGTLVTVSS VL: QSVVTQPPSASGTPGQRVTISCSGSSSNIGSNTVNWYQLLPATAPRILIYNNNQRPSGVPDRFAGSKSGTSASLAISGLQSEDEADYYCGAWDDSLNSPVFGGGTKLTVL"
experimental_value = "0.35 nM"

[[record]]
binder = "ILT70083 (antibody, V domains shown) VH: EVQLLESGGGLVQPGGSLRLSCAASGFTFSSYAMSWVRQAPGKGLEWVSAISGSGGSTYYADSVKGWFTISRDNSKNTLYLQMNSLRAEDTAVYYCARRTYYYDSDGHSDVFDIWGRGTLVTVSS VL: QSVVTQPPSVSAAPGQKVTISCSGSASNIGSNFVSWYQQLPGRAPKLLIYDNDKRDLGIPDRFSASISSTSAALAITGLQTEDEADYYCGTWDTSLTVGVFGGGTKLTVL"
experimental_value = "1.37 nM"

[[record]]
binder = "ILT70137 (antibody, V domains shown) VH: QVQLQQSGAEVKKPGASVKVSCKASGYTFTSYGISWVRQAPGQGLEWMGWISAYNGNTNYAQKLQGRVTMTTDTSTSTAYMELRSLRSDDTAVYYCARNGLWGWDSDAFDIWGRGTLVTVSS VL: QSALTQPASVSGSPGQSITISCTGTSSDVGGYNYVSWYQQHPGKAPKLMIYDVSNRPSGVSNRFSGSKSGNTASLTISGLQAEDEADYYCSSYTSSSTVVFGGGTKVTVL"
experimental_value = "1.4 nM"

[[record]]
binder = "ILT70144 (antibody, V domains shown) VH: QVQLVQSGAEVKKPGASVKVSCKASGYTFTSYGISWVRQAPGQGLEWMGWISAYNGNTNYAQKLQGRVTMTRDTSISTAYMELSRLRSDDTAVYYCARNGLWGWDSDAFDIWGQGTTVTVSS VL: QSVLTQPPSVSAAPGQKVTISCSGSSSNIGNNYVSWYQQLPGTAPKLLIYDNNKRPSGIPDRFSGSKSGTSATLGITGLQTGDEADYYCGTWDSSLSAGVFGTGTQLTVL"
experimental_value = "7.81 nM"

